Hey, just so you know, these numbers are from ChEMBL document CHEMBL1134877.

A collection of molecules and their measured pKi
Sequence of the target: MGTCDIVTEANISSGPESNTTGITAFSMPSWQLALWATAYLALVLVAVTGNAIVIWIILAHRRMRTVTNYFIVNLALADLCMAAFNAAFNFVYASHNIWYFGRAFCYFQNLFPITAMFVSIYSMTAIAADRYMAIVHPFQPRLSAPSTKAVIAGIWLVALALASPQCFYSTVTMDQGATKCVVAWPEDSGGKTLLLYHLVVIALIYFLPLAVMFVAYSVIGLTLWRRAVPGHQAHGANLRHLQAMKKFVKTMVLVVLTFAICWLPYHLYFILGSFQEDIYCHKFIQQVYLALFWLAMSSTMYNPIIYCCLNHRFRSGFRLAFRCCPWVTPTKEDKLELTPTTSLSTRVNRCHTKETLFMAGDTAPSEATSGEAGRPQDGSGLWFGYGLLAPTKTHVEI
pKi field: float, defined as -log10 of concentration (mol/L).

Known results for molecules:
• CCOC(=O)C1=C(C)OC2OC(COCc3ccccc3)C(OCc3ccccc3)C(OCc3ccccc3)C2S1 (centres undefined) = 4.90
• CC1=C(C(=O)Oc2ccccc2)[S+]([O-])C2C(O1)OC(COCc1ccccc1)C(OCc1ccccc1)C2OCc1ccccc1 (centres undefined) = 6.40

Continue with the molecule presented below.
Q) What pKi value was documented for this molecule, CCOC(=O)C1=C(C)OC2OC(COCc3ccccc3)C(OCc3ccccc3)C(O)C2S1 (centres undefined) ?
A) 4.90
